- system_under_test: Albumin (Bos taurus)
- test_summary: bovine serum albumin binders on microarray, profiling panel, artefact control for SMM control protein annotation, biochemical, small-molecule microarray, Alexa647 label, 635/667 nm fluorescence (AID 1118);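 further: score merges 667 nm emission intensity and signal-to-noise per printed compound spot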
- study_conditions: BSA-A647 binding, fluorescence 635 nm, higher = more signal
measured_metric: composite z-score
Kindly provide the number alone.

Exam item: Entry "CN(C)C(=O)[C@@]1(CCC(=O)OC(C)(C)C)N=C(c2ccc(OCCCO)cc2)O[C@H]1c1ccccc1" needs its composite z-score filled in; supply it.
Marked response: 0.955

Exam item: Return composite z-score for the following molecule: "CCCN1C(=O)[C@]2(COC(c3ccc(OCCCO)cc3)=N2)Cc2ccccc21"
Marked response: 0.0531

Exam item: Please supply the value of reported composite z-score for the item "NCCCCCNC(=O)[C@H]1C[C@H]2C(=O)NCC(=O)N2[C@H]1c1cccc(OCCO)c1"
Marked response: 0.0356

Exam item: Output measured composite z-score for this item: "CC(C)CNC(=O)[C@@]1(c2ccc([N+](=O)[O-])cc2)CC(=O)N(CC23CC4CC(CC(C4)C2)C3)[C@@H]1c1ccc(CO)cc1I"
Marked response: -0.0275

Exam item: Provide one value: measured composite z-score of "COCCOC(=O)N1C(=O)[C@@]2(c3cc(C#CC4=CCCCC4)ccc31)[C@H](C(=O)NC[C@H](O)c1ccccc1)[C@H]1C(=O)O[C@H](c3ccccc3)[C@H](c3ccccc3)N1[C@@H]2c1ccc(O)cc1"
Marked response: 0.112

Exam item: Return composite z-score for the following molecule: "Cc1ccc(S[C@]2(C(=O)NCCN3CCOCC3)CC(=O)N(Cc3cc(C(F)(F)F)cc(C(F)(F)F)c3)[C@@H]2c2ccc(CO)cc2I)cc1"
Marked response: 0.59

Exam item: Consider the molecule "O=C1O[C@@H](c2ccccc2)[C@@H](c2ccccc2)N2[C@@H](c3ccc(O)cc3)[C@]3(C(=O)Nc4ccc(C#CC5(O)CCCCCC5)cc43)[C@@H](C(=O)N3CCCCCCC3)[C@H]12" and give its recorded composite z-score.
Marked response: 0.748

Exam item: Provide composite z-score value for the following molecule: CCN(CC)c1ccc(N2CC=CC34O[C@@H]5/C=C\CCCOC(=O)C5[C@H]3C(=O)N(C(CO)C(C)C)[C@@H]4C2=O)cc1 (stereo not given in full)
Marked response: -1.18

Exam item: Hello, please tell me recorded composite z-score for this one: "CO[C@H]1O[C@H](CO)[C@@H](OC(=O)Nc2ccc3c(c2)OCO3)[C@H](OC(=O)Nc2ccccc2)[C@H]1OC(=O)Nc1ccccc1"
Marked response: -0.21

Exam item: Using the record for "C[C@]1(C(=O)NCc2ccccc2)c2ccccc2C(=O)N(Cc2ccc(OC(F)(F)F)cc2)[C@H]1c1ccc(CO)cc1" , state its measured composite z-score.
Marked response: -0.125

Exam item: Give the value of composite z-score reported for the following: "C=C(COC)/C(=C/C[C@H](OC(=O)c1ccncc1)c1cccc(OCCO)c1)c1cc(C(=O)OC)ccc1OC"
Marked response: 0.374

Exam item: Fill in reported composite z-score for this entry: CC(C)c1ccc(NN2C(C(O)c3ccc(N(C)C)cc3)C=CC3C(=O)N(c4ccccc4)C(=O)C32)cc1 (stereo not given)
Marked response: 0.961

Exam item: Note composite z-score for the molecule shown: "[N-]=[N+]=Nc1ccccc1[C@@H]1OC(c2ccc(OCCCO)cc2)=N[C@]1(CCS(=O)(=O)c1ccccc1)C(=O)N1CCOCC1"
Marked response: 0.815

Exam item: Please give the documented composite z-score of O=C1C2C=CC(C(O)c3ccc(-c4ccccc4)s3)N(n3cnnc3)C2C(=O)N1Cc1ccccc1 (stereo not given)
Marked response: -0.314

Exam item: Tell me composite z-score reported for CC(c1ccccc1)C(O)C1C=CC2C(=O)NC(=O)C2N1Nc1ccccn1 (stereo not given)
Marked response: 0.183
